Where do the numbers come from? From patent US20140056903A1.

# EXPERIMENTAL TARGET: T1, human GFRα3 expressed with a C-terminal myc-myc-hexahistidine tag (human, UniProt O60609 32-374, biotinylated (sites not given) in ELISA format 2 and in the Octet cross-competition; not in SPR)
# T1 construct: also called hGFRα3-mmh; hGFRα3-mmH
# T1 sequence (O60609 other isoform, or with tags, fused parts or gaps limits assumed): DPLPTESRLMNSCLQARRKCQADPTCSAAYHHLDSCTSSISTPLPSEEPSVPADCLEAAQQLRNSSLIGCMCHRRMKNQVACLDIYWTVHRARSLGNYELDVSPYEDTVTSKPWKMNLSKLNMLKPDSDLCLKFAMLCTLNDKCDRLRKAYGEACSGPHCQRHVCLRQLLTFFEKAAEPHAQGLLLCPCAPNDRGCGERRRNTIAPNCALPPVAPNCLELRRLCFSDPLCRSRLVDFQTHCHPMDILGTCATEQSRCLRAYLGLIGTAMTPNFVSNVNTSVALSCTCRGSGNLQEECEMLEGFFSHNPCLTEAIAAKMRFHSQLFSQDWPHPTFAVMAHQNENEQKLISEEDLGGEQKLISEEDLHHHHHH
# TEST: SPR, Ab captured, 25C
MEASUREMENT TYPE: pKd
Recall that pKd is obtained by taking minus log10 of the concentration measured in molar.

In the examples that follow, each entry is paired with its recorded pKd.
Query string: Can you look up the measured pKd of H4H2295S (antibody, human IgG4, V domains shown, human IgG4 Fc (H4H)) VH: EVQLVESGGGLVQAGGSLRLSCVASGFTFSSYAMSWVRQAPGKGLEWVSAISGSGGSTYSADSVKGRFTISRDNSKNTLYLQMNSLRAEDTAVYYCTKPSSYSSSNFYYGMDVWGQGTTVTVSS VL: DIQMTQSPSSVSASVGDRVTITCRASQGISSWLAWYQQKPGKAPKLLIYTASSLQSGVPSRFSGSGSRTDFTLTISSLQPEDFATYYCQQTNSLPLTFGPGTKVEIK for me?
Result string: 9.27

Query string: Fill blank: measured pKd of the binder H1M2236N (antibody, V domains shown, chimeric, human variable and mouse constant domains (H1M)) VH: EVQLLESGGNLVQPGGSLRLSCAASGFTFSSYAMTWVRQAPGKGLEWVSTISGSGTSTYYADSVKGRFTISRDNSRDTVFLQMNSLRAEDTAVYYCSKPSALRFLHWLCMDVWGQGTLVTVSS VL: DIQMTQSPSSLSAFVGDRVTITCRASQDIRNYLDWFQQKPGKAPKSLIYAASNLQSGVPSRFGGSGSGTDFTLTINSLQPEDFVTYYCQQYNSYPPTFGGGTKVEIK is ____.
Result string: 9.56

We next turn to a different binder, shown below.
Query string: // pKd lookup, key: H4H2354S (antibody, human IgG4, V domains shown, human IgG4 Fc (H4H); also called H4H2354S-1) VH: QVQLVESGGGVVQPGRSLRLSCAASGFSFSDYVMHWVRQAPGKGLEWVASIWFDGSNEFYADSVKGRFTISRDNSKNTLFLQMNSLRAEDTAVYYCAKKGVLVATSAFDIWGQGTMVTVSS VL: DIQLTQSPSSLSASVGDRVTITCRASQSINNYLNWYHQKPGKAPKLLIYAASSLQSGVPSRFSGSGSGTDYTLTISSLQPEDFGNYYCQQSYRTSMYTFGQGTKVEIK
Result string: 9.26
